# EXPERIMENTAL_TARGET: Homeobox protein Hox-A13 (Mus musculus) (UniProt Q62424)
# Sequence (Q62424 whole entry, looked up): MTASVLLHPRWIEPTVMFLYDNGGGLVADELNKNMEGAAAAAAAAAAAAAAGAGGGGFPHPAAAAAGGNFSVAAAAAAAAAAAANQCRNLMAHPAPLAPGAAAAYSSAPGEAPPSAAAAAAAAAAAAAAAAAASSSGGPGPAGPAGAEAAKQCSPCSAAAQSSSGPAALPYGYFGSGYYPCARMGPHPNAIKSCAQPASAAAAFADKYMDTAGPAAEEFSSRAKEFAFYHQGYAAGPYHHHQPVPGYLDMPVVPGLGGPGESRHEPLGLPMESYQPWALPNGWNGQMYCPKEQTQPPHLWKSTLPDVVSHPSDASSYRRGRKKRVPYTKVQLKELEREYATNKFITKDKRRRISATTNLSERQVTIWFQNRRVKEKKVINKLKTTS
# MEASUREMENT_NOTES: inhibitors of HoxA13-DNA binding, primary screen, biochemical, fluorescence polarization, labeled oligonucleotide (AID 1185)
# EXPERIMENTAL_CONDITIONS: 15 min, higher = more signal, called active from +8 up or from −8 down
Decision: z-score >= -3 yields y, all other cases yield n.

Example entries and their recorded answers appear below.
- COMPOUND: "CC(C)OC(=O)C=C1C[C@@H](c2ccccc2C(F)(F)F)O[C@@H](c2ccccc2C(F)(F)F)O1"
  ASSIGNED_LABEL: "y"
- COMPOUND: "COc1ccc(C(=O)Nc2ccc(CN3C(=O)[C@@]4(O[C@@H](CC(=O)N5CCC[C@H]5CO)[C@H]([Si](C)(C)c5ccc(OC)cc5)[C@H]4C)c4ccccc43)cc2)cc1"
  ASSIGNED_LABEL: "n"

Q: Check if z-score >= -3 (inclusive). Item: O=C1OCCC=C[C@H]2OC34C=CCN(CCN5CCOCC5)C(=O)[C@H]3N(CCCCCCO)C(=O)[C@@H]4C12 (some centres not stated)
Result: n

Q: Dear colleague, could you confirm whether Cc1ccc(C(C)CC(O)C2C=CC3C(=O)N(c4ccccc4)C(=O)C3N2Nc2ccc([N+](=O)[O-])cc2)o1 (configuration not stated) has z-score at or above -3?
Result: n

Q: Given O=C(NCc1ccccc1)[C@@]1(CCS(=O)(=O)c2ccccc2)N=C(c2ccc(OCCCO)cc2)O[C@H]1c1ccccc1 , state whether its z-score is at least -3.
Result: y

Q: Hello, I need to know if CN(C)C(=O)[C@@]1(Cc2ccccc2CN=[N+]=[N-])N=C(c2ccc(OCCCO)cc2)O[C@H]1c1ccccc1 has measured z-score not below -3. Thanks!
Result: n

Q: State whether the measured z-score reaches -3, counting equality as reaching it, for C=CCOC(=O)[C@H]1[C@@H]2C(=O)O[C@@H](c3ccccc3)[C@@H](c3ccccc3)N2[C@@H](c2ccc(OCCOC(=O)[C@H]3C[C@H]4C(=O)N[C@@H](CC(C)C)C(=O)N4[C@H]3c3ccc(O)cc3)cc2)[C@]12C(=O)Nc1ccc(I)cc12
Result: y

----------
# EXPERIMENTAL_TARGET: Torsin-1A-interacting protein 2 (Homo sapiens) (UniProt Q8NFQ8)
# Sequence (Q8NFQ8 whole entry, looked up): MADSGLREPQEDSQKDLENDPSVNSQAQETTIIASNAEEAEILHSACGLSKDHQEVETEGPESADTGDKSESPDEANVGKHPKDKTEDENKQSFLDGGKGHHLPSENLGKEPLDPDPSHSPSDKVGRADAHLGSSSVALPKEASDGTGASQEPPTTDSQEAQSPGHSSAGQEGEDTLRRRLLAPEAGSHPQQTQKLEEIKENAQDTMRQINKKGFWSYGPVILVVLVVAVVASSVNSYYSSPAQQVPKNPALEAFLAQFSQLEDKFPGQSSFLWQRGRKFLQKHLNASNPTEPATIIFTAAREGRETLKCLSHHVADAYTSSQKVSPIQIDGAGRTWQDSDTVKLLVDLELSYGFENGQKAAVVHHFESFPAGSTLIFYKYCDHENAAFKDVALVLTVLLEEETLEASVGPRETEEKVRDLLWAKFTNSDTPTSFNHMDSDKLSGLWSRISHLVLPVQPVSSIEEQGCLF
# MEASUREMENT_NOTES: LULL1 binders on small-molecule microarray, primary screen, cell lysate, human LULL1 lysate, 635/667 nm fluorescence (AID 1092);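 note: probe is lysate of COS7 cells overexpressing human LULL1; score merges per-feature 667 nm fluorescence with signal-to-noise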
# EXPERIMENTAL_CONDITIONS: hLULL1 lysate binding, 635 nm fluorescence, higher = more signal
composite z-score by entry:

- COMPOUND: "CC(C)C[C@H]1NC(=O)[C@@]23C(=O)N[C@@H](Cc4ccccc4)C2[C@H](C)[C@@]2(C)O[C@H]2C3/C=C/C/C=C\\CNC(=O)[C@H](Cc2ccccc2)NC1=O (some centres not stated)"
  EXPERIMENTAL_TARGET: "Torsin-1A-interacting protein 2 (Homo sapiens) (UniProt Q8NFQ8)"
  OBSERVED_MEASUREMENT: 1.13

Q: Would you please give the reported composite z-score of C[C@@]1([C@@H](NC(=O)c2ccccc2)c2ccc(-c3ccccc3)cc2)C[C@H]1C1CCCCC1 with Torsin-1A-interacting protein 2 (Homo sapiens) (UniProt Q8NFQ8)?
Result: 0.429

----------
# MEASUREMENT_NOTES: E. coli acrAB mutant growth effects, primary screen, E. coli filamentation inducers, strain DRC39, OD650, 24 h (AID 1178);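 note: growth measured as culture turbidity by optical density at 650 nm; test concentration not given here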
# EXPERIMENTAL_CONDITIONS: higher = more signal, called active from +8 up or from −8 down
PROPERTY_MEASURED: z-score
Answer with a number only.

Worked cases, answers included:
- SMILES_DATA: "C=CCOC(=O)[C@@H]1[C@H]2C(=O)O[C@H](c3ccccc3)[C@H](c3ccccc3)N2[C@H](c2ccc(OCCOC(=O)[C@@H]3C[C@@H]4C(=O)N5CCC[C@H]5C(=O)N4[C@@H]3c3ccc(O)cc3)cc2)[C@@]12C(=O)Nc1ccc(I)cc12"
  PROPERTY_MEASURED: "z-score"
  OBSERVED_MEASUREMENT: 0.65
- SMILES_DATA: "COCCOC(=O)N1C(=O)[C@@]2(c3ccccc31)[C@H](c1ccc(O)cc1)N1[C@H](c3ccccc3)[C@H](c3ccccc3)OC(=O)[C@H]1[C@@H]2C(=O)NC[C@H](O)c1ccccc1"
  PROPERTY_MEASURED: "z-score"
  OBSERVED_MEASUREMENT: -1.12
- SMILES_DATA: "COCC(=C=CC[C@@H](O)c1ccccc1OCCO)C[C@@H](O)c1cc(Cl)cc(Cl)c1O"
  PROPERTY_MEASURED: "z-score"
  OBSERVED_MEASUREMENT: -0.259

// below: z-score requested for another compound
Q: Hello, please tell me recorded z-score for this one: C=CC[C@@]1(C(=O)NCc2ccccc2)N=C(c2ccc(OCCCO)cc2)O[C@@H]1c1ccccc1N=[N+]=[N-]
Result: 0.335

----------
Known z-score of a selection of compounds
# MEASUREMENT_NOTES: RPMI8226 myeloma cell viability, profiling panel, resazurin fluorescence, basal, 24 h, PK04 Diversity Set (AID 1180);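 note: RPMI8826 multiple myeloma cell line at 5000 cells per well; test concentration not given here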
# EXPERIMENTAL_CONDITIONS: higher = more signal
Answer with the value's number alone.

- COMPOUND: "C=CCC(OC(C)=O)[C@@H]1[C@@H](N(Cc2cccc3ccccc23)C(=O)c2ccc(-c3ccccc3)cc2)c2cc(OCCCO)ccc2N1C(=O)Cc1ccc(OC)cc1 (some centres undefined)"
  OBSERVED_MEASUREMENT: 1.45
- COMPOUND: "COC(=O)[C@@]1(Cc2ccc(F)cc2)[C@H]2c3cc(C(=O)N4CCCC4)n(Cc4cc(C)n(C)n4)c3C[C@H]2CN1C(=O)c1ccccc1"
  OBSERVED_MEASUREMENT: -1.51
- COMPOUND: "C=CCOC(=O)[C@@H]1[C@H]2C(=O)O[C@H](c3ccccc3)[C@H](c3ccccc3)N2[C@H](c2ccc(OCCOC(=O)[C@@H]3C[C@@H]4C(=O)N[C@@H](Cc5ccccc5)C(=O)N4[C@@H]3c3ccc(O)cc3)cc2)[C@@]12C(=O)Nc1ccc(I)cc12"
  OBSERVED_MEASUREMENT: 0.411

Q: Provide one value: measured z-score of O=C(NCc1ccccc1)[C@@H]1c2ccccc2C(=O)N(CC23CC4CC(CC(C4)C2)C3)[C@H]1c1ccc(CO)cc1
Result: -0.195

Q: Complete the entry with z-score for CCCCN1CC=CC23O[C@@H]4/C=C\CCC(C)OC(=O)C4[C@H]2C(=O)N(CCCCCO)[C@@H]3C1=O (some centres undefined)
Result: 0.05

Q: Dear colleague, please send me the reported z-score for COC(=O)c1c(CC[C@@H](CO)NC(=O)N[C@@H](C)Cn2cc(C3(O)CCCCC3)nn2)oc(C(C)=O)c1C(=O)OC when you can.
Result: -0.8

----------
# MEASUREMENT_NOTES: E. coli growth modulation, two-sided OD650, primary screen, E. coli filamentation project, strain DRC41, 24 h (AID 1093);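 note: MC1000 strain lacking acrAB efflux and sulA so SOS filamentation is blocked; test concentration not given here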
# EXPERIMENTAL_CONDITIONS: OD650, 24 h, higher = more signal, called active from +8 up or from −8 down
Calls of active or inactive are those of the source.
z-score values by entry

The cases that follow already have their z-score on record.
- COMPOUND: "O=C1c2ccccc2[C@](Cc2ccccc2I)(C(=O)NC2CC2)[C@H](c2ccc(CO)cc2)N1Cc1ccccc1"
  OBSERVED_MEASUREMENT: "0.192 (inactive)"
- COMPOUND: "COC(=O)[C@@]1(Cc2ccc(F)cc2)[C@H]2c3cc(C(=O)N(C)C)n(Cc4nc5ccccc5[nH]4)c3C[C@H]2CN1C(=O)c1ccccc1"
  OBSERVED_MEASUREMENT: "-0.373 (inactive)"
- COMPOUND: "COC(=O)[C@@]1(Cc2ccc(F)cc2)[C@H]2c3cc(C(=O)N4CCCC4)n(Cc4cc(C)n(C)n4)c3C[C@H]2CN1C(=O)c1ccccc1"
  OBSERVED_MEASUREMENT: "0.234 (inactive)"

Below: the item to evaluate.
Q: Fill in reported z-score for this entry: CN1C(=O)[C@]2(Cc3ccccc3)N=C(c3ccc(OCCCO)cc3)O[C@@H]2c2ccccc21
Result: -0.538 (inactive)

----------
# Test system: wheat germ agglutinin (Triticum aestivum), Alexa647-labelled
# MEASUREMENT_NOTES: wheat germ agglutinin binders on compound microarrays, profiling panel, artefact control for SMM control-protein annotation, biochemical, small-molecule microarray, 635/667 nm fluorescence (AID 1140);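 note: score merges 667 nm feature emission with signal to noise over triplicate slides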
# EXPERIMENTAL_CONDITIONS: WGA-A647 binding, 635 nm fluorescence, higher = more signal
Binary call on composite z-score: met from 0.8 upward, not met beneath that.

Previously resolved entries follow.
- COMPOUND: "COCCOC(=O)N1C(=O)[C@@]2(c3ccccc31)[C@H](c1ccccc1OCCO)N1[C@H](c3ccccc3)[C@H](c3ccccc3)OC(=O)[C@H]1[C@@H]2C(=O)Nc1nc2ccccc2s1"
  ASSIGNED_LABEL: "met"
- COMPOUND: "C=C(CCCC)C(=O)CC[C@H](OC(=O)c1cccnc1)c1ccccc1OCCO"
  ASSIGNED_LABEL: "not met"
- COMPOUND: "O=C1[C@H]2C=C(Br)[C@H](C[C@@H]2OCCCCO)[C@@]12CO2"
  ASSIGNED_LABEL: "not met"
- COMPOUND: "O=C1OCCC/C=C\\[C@H]2OC34C=CCN(Cc5ccccc5)C(=O)[C@H]3N(CCCCCCO)C(=O)[C@@H]4C12 (stereo partly specified)"
  ASSIGNED_LABEL: "not met"
- COMPOUND: "CN(C)CCCCCCNC(=O)[C@@H]1C[C@@H]2C(=O)N[C@@H](CCCCN)C(=O)N2[C@@H]1c1cccc(OCCO)c1"
  ASSIGNED_LABEL: "met"
- COMPOUND: "CCOC(=O)[C@H]1CC=C2CC1C(=O)N1CCC[C@@H]1[C@@H]2O[Si](C)(C)C(C)(C)C (stereo partly specified)"
  ASSIGNED_LABEL: "not met"

Q: composite z-score >= 0.8 for [N-]=[N+]=NCc1ccccc1C[C@@]1(C(=O)NCC(O)CO)N=C(c2ccc(OCCCO)cc2)O[C@@H]1c1ccccc1N=[N+]=[N-] (stereo partly specified) ?
Result: met

Q: Does the compound COC(=O)[C@@]1(Cc2ccccc2)[C@H]2c3cc(C(=O)N4CCCC4)n(Cc4nc5ccccc5[nH]4)c3C[C@H]2CN1C(=O)c1ccccc1 have recorded composite z-score that is 0.8 or more?
Result: not met

Q: Hi team, for COc1ccc(C(O)C2C=CC3C(=O)NC(=O)C3N2Nc2ccccn2)cc1 (stereo unspecified) , is the recorded composite z-score at or above 0.8?
Result: met

Q: Decide: is the reported value of composite z-score for CN(C)CCCC[C@@H]1NC(=O)[C@H]2C[C@@H](C(=O)NCCCCCNC(=O)CS)[C@@H](c3cccc(OCCO)c3)N2C1=O equal to or greater than 0.8?
Result: not met

Q: Could you tell me if the measured composite z-score of CCCC=C(CCC)[C@@H](NC(=O)Oc1ccc(F)cc1)c1ccc(C(=O)OC)cc1 reaches 0.8 or more?
Result: met
